System: HOP-18
Test: NCI tumour cell line growth inhibition, 48 h
Calls of active or inactive are those of the source. Rule as the data show it: active = GI50 up to about 1.1 µM and inactive = higher.
Outcomes: Yes (active), No (inactive)

COMPOUND	CAT
Cc1ccc(NC(=O)C2C(=O)N(c3ccc(C)c(C)c3)C(=O)/C2=N\NC(N)=O)cc1C (stereo unspecified)	No
Cc1cc(Cl)ccc1NC(=O)CCCC(=O)C1CCCC1=O (stereo unspecified)	No
Nc1ccc(-c2nc3ccccc3s2)cc1	No
CC12c3ccccc3C(OC=O)(c3ccccc31)C1(C)c3ccccc3C2(OC=O)c2ccccc21	No
[N-]=[N+]=N[C@H]1C[C@@H](CO)O[C@H]1n1cnc2c(N)ncnc21	Yes
CCOC(=O)C(Cc1ccc([N+](=O)[O-])cc1)NC(=O)CC1c2ccccc2-c2ccccc21 (stereo unspecified)	No
C[N+](C)(C)CC1CCC/C1=N\OC(=O)c1ccccc1 (stereo unspecified)	No
CCOC(=O)/C(=C/c1ccc(C(F)(F)F)cc1)N(CC)CC	No
CC(C)(O)[C@@H]1CC[C@@]2(C)CCC[C@H](O)[C@H]2C1	No
CC(=O)c1ccc(OCC(O)CO)cc1 (stereo unspecified)	No
Cc1ccc(C2=NN(C)COC2C(F)(F)F)cc1 (stereo unspecified)	No

---

Tested on: NCI-H522
Test: NCI tumour cell line growth inhibition, 48 h
Activity calls are given as the source filed them. No stated cut-off is given here; in the data, active = GI50 up to about 1.1 µM and inactive = higher. Where a SMILES comes first, the peptide text is derived from it. [ ]: non-standard residue; d: D form. The star is where a group is joined. ξ: configuration not given here. X4 = COc1ccc(C(N*)c2ccc(OC)cc2)cc1; NMeF = CN[C@@H](Cc1ccccc1)C(=O)O; NMeD = CN[C@@H](CC(=O)O)C(=O)O; NMeV = CN[C@H](C(=O)O)C(C)C; ξNMeV = CNC(C(=O)O)C(C)C; Boc = CC(C)(C)OC(=O)*; ξNMeA = CNC(C)C(=O)O; ξV = CC(C)C(N)C(=O)O
Each entry below carries its recorded GI50.

COMPOUND	GI50
N#CC(Nc1ccccc1)c1ccc(C(C#N)Nc2ccccc2)cc1 (stereo not drawn)	> 100 µM (inactive)
Cc1ccc(Nc2ncnc3sc(SCc4ccccc4)nc23)cc1	> 100 µM (inactive)
Cc1ccc(NC(=O)CCc2nnc3s/c(=C\C=C\c4ccccc4)c(=O)n23)cc1	37.8 µM (inactive)
O=[N+]([O-])C(=C/c1cccc2ccccc12)/C(=C\c1cccc2ccccc12)[N+](=O)[O-]	1.37 µM (inactive)
COc1cc([C@@H]2c3cc4c(cc3[C@@H](Nc3ccc(NC(=O)c5cc([N+](=O)[O-])cn5C)cc3)[C@H]3COC(=O)[C@H]23)OCO4)cc(OC)c1O	0.291 µM (active)
Cc1ccc2occ/c(=N\Nc3ccccc3)c2c1	84.7 µM (inactive)
O=C1O[C@H](c2ccc3c(c2)OCO3)[C@H]2CO[C@@H](c3ccc4c(c3)OCO4)[C@@H]12	94.8 µM (inactive)
O=c1oc2ccc3ccccc3c2cc1-c1nnc(-c2ccc([N+](=O)[O-])cc2)[nH]1	92 µM (inactive)
CN1CCCOC(c2ccc([N+](=O)[O-])cc2)O1 (stereo not drawn)	> 100 µM (inactive)
COC(=O)c1c[nH]cc1CCCCc1c[nH]cc1C(=O)OC	> 100 µM (inactive)
[O-]/[N+](=N/c1ncc(-c2ccccc2)cn1)c1ncc(-c2ccccc2)cn1	14.8 µM (inactive)
Clc1ccc(Cc2nc3cc(Cl)c(Cl)cc3n2CC2CCCN3CCCCC23)cc1 (stereo not drawn)	12.2 µM (inactive)
Nc1ccc(N)c2c1C(=O)c1ccccc1C2=O	9.48 µM (inactive)
CCOC(=O)c1cc([N+](=O)[O-])c(Sc2ncnc3nc[nH]c23)c([N+](=O)[O-])c1	0.643 µM (active)
CCO/C(CCn1[nH]c(=O)c(Cl)c(Cl)c1=O)=N\NC(=O)C(=O)NN	> 100 µM (inactive)
Cc1ccc(NC(=O)C2C(=O)N(c3ccc(C)c(C)c3)C(=O)/C2=N\NC(N)=O)cc1C (stereo not drawn)	55.1 µM (inactive)
CCOC(=O)/C(=C\c1ccc[nH]1)C(=O)c1ccccc1	> 100 µM (inactive)
COc1ccc(C(NC(=O)C[C@@H](C(=O)N(C)C(C)C(=O)O)N(C)C(=O)[C@@H]2CCCN2C(=O)[C@H](C(C)C)N(C)C(=O)C(C(C)C)N(C)C(=O)[C@H](Cc2ccccc2)N(C)C(=O)C(NC(=O)OC(C)(C)C)C(C)C)c2ccc(OC)cc2)cc1 (stereo partly drawn) (Boc-[ξV][NMeF][ξNMeV][NMeV]P[NMeD](X4)[ξNMeA]-OH)	11.5 µM (inactive)

---

Test system: NCI-H226
Test: NCI tumour cell line growth inhibition, 48 h
Calls of active or inactive are those of the source. No stated cut-off is given here; in the data, active = GI50 up to about 1.1 µM and inactive = higher.
Each entry below carries its recorded GI50.

COMPOUND	GI50
CC(C)(C)COC1C2(OCCO2)C2CCC1(C)C2(C)C (stereo not given)	27.4 µM (inactive)
Cn1c(=S)c2nc(SCCN3C(=O)c4ccccc4C3=O)[nH]c2n(C)c1=O	> 100 µM (inactive)
CN(C)C1COC2Cc3ccccc3C1O2 (stereo not given)	> 100 µM (inactive)
CC(C)=CCc1cc2c(cc1O)OC[C@H]1c3cc4c(cc3O[C@@H]21)OCO4	23.8 µM (inactive)
NC(CO)C(=O)NCC(=O)O (stereo not given)	> 100 µM (inactive)
CCCC(C(=O)Nc1cccc2nc[nH]c12)C(=O)OCC (stereo not given)	> 100 µM (inactive)
COc1ccc(C[C@@H]2OC3(C=CC(=O)CC3Sc3ccccc3)O[C@H]2Cc2ccc(OC)cc2)cc1 (stereo not given in full)	1.53 µM (inactive)
CC(CC(C)[C@H]1CCC2[C@H]3C(CC[C@@]21C)[C@@]1(C)CCC(O)C[C@H]1C[C@@H]3O)C(=O)O (stereo not given in full)	> 100 µM (inactive)
CC(CC[C@@]1(C)C(=O)CCC2O[C@]21C)[C@H]1C[C@@H](c2ccoc2)OC1=O (stereo not given in full)	> 100 µM (inactive)
Cc1ccc(C(=O)OCC(C)C)cc1/N=N/N(C)C	> 100 µM (inactive)

---

Test system: SF-268
Assay: NCI tumour cell line growth inhibition, 48 h
Active and inactive are the calls of the source. Rule as the data show it: active = GI50 up to about 1.1 µM and inactive = higher.
Outcomes: y for active, n for inactive

COMPOUND	CAT
O=C(O)CCS/C(=C\C(SCCC(=O)O)c1ccc(Cl)cc1)c1ccc(Cl)cc1 (stereo not given)	n
Cc1nc2cc(/N=N/c3c(C)noc3C)ccc2[nH]1	n
CC(C(=O)O)c1ccc(-c2ccccc2)c(F)c1 (stereo not given) [TARENFLURBIL]	n
O=c1c2cc([N+](=O)[O-])ccc2sc2ccsc12	n
COc1ccc2c(c1)CCc1c-2[nH]c2ccc(OC)cc12	n
COc1cc([C@@H]2c3cc4c(cc3[C@@H](Nc3ccc(NC(=O)c5cc([N+](=O)[O-])cn5C)cc3)[C@H]3COC(=O)[C@H]23)OCO4)cc(OC)c1O	y
Cc1cc(O)c(C(=O)CC2(O)C(=O)Nc3c(Cl)cc(Cl)cc32)c(=O)o1 (stereo not given)	n
O=C(/C=C/c1ccccc1Cl)c1ccc(Cl)cc1Cl	n
CN(C)C(=O)OC(Cn1cncn1)(Cn1cncn1)c1ccc(Cl)cc1Cl	n
O=C(CNCc1ccccc1)Oc1c(Cl)c(Cl)c(Cl)c(Cl)c1Cl	n

---

Tested on: HT-29
Assay: NCI tumour cell line growth inhibition, 48 h
Calls of active or inactive are those of the source. Cut-off read from the data, not from the text of the source: active = GI50 up to about 1.1 µM and inactive = higher.

MOLECULE	TARGET OR SYSTEM	GI50
NS(=O)(=O)c1ccc(NC(=O)C2C(=O)C(=O)N(c3ccc(S(N)(=O)=O)cc3)C2=O)cc1 (stereo unspecified)	HT-29	> 100 µM (inactive)
CCCCCCCCCCCC1CC(=O)NCCCN(C)CCCCN(C)CCCN1C (stereo unspecified) [BUDMUNCHIAMINE A]	HT-29	1.56 µM (inactive)
Cc1ccc(C(=O)OCC(C)C)cc1/N=N/N(C)C	HT-29	16.1 µM (inactive)
CCOC(=O)N1CCN(C=S)CC1	HT-29	> 100 µM (inactive)
NC(CCCCCP(=O)(c1ccccc1)C1C=CC=CC1)C(=O)O (stereo unspecified)	HT-29	> 100 µM (inactive)
NS(=O)(=O)c1nnc(NC(=S)NC(=O)Nc2ccc(Cl)c(Cl)c2)s1	HT-29	25.5 µM (inactive)

---

Test system: SK-MEL-2
Assay: NCI tumour cell line growth inhibition, 48 h
Active and inactive are the calls of the source. Cut-off read from the data, not from the text of the source: active = GI50 up to about 1.1 µM and inactive = higher.
Outcomes: True (active), False (inactive)

COMPOUND	TARGET OR SYSTEM	CAT
Cc1occc(=O)c1O	SK-MEL-2	False
CCCC(C(=O)Nc1cccc2nc[nH]c12)C(=O)OCC (stereo not drawn)	SK-MEL-2	False
O=NN(CCF)C(=O)NC1CC2CCC1C2 (stereo not drawn)	SK-MEL-2	False
O=C(Cc1nc2ccccc2c(=O)n1-c1c(Cl)cccc1Cl)c1ccncc1	SK-MEL-2	False
N/C(=N/O)c1cn(C2OC(CO)C(O)C2O)c2ncnc(NO)c12 (stereo not drawn)	SK-MEL-2	True
C(=N\c1ccc(-c2nc3ccccc3[nH]2)cc1)/c1cccs1	SK-MEL-2	False
COc1cc2c(c(OC)c1)/C(=C/Sc1ccccc1)C(=O)N(C(C)(C)C)C2	SK-MEL-2	False
CCOC(=O)C1=C(C(C)=O)CSC(c2ccccc2)=N1	SK-MEL-2	False
CCCCCCCCCCCCCCCC(=O)OCC1OC(OC)C(NC(=O)N(CCCl)N=O)C(O)C1O (stereo not drawn)	SK-MEL-2	False
Cc1ccccc1CN1CC2=C(CCN(Cc3ccccc3)C2=O)N2CCN=C12	SK-MEL-2	False
COc1ccc2ccccc2c1C1NC(=O)c2ccccc2N1 (stereo not drawn)	SK-MEL-2	False
O=C1C[C@@]23CCC4(CC2CCC[C@H]3O1)OCCO4 (stereo partly drawn)	SK-MEL-2	False
N/C(=N\c1ccc(Cl)cc1)NS(=O)(=O)c1ccc(-c2ccccn2)s1	SK-MEL-2	False
Oc1ccc2oc3c(O)c4ccccc4cc3c2c1	SK-MEL-2	False
O=C1/C(=C/c2cccc(Oc3ccccc3)c2)N=C(c2ccccc2)N1c1nc2ccc(Sc3ccccc3)cc2[nH]1	SK-MEL-2	False
COc1ccccc1NC(=O)C1=C(C)NC(C)=C(C(=O)Nc2ccccc2OC)C1c1cccc2ccccc12	SK-MEL-2	False
O=C(CC1(O)C(=O)Nc2ccccc21)c1ccc2ccccc2c1 (stereo not drawn)	SK-MEL-2	False
Cc1cccc(C)c1NC(=O)CCc1nnc(S)[nH]1	SK-MEL-2	False
[O-]/[N+](=N/c1ncc(-c2ccccc2)cn1)c1ncc(-c2ccccc2)cn1	SK-MEL-2	False
CC(N)(Cc1c[nH]c2ccccc12)C(=O)O (stereo not drawn)	SK-MEL-2	False
C[N+](C)(C)CC1CCC/C1=N\OC(=O)c1ccccc1 (stereo not drawn)	SK-MEL-2	False
CCC(C)NC1=C(NC(C)=O)C(=O)c2ccccc2C1=O (stereo not drawn)	SK-MEL-2	False
NC(CO)C(=O)NCC(=O)O (stereo not drawn)	SK-MEL-2	False
